- Measured On: UniProt O15438
- Sequence (O15438 whole entry): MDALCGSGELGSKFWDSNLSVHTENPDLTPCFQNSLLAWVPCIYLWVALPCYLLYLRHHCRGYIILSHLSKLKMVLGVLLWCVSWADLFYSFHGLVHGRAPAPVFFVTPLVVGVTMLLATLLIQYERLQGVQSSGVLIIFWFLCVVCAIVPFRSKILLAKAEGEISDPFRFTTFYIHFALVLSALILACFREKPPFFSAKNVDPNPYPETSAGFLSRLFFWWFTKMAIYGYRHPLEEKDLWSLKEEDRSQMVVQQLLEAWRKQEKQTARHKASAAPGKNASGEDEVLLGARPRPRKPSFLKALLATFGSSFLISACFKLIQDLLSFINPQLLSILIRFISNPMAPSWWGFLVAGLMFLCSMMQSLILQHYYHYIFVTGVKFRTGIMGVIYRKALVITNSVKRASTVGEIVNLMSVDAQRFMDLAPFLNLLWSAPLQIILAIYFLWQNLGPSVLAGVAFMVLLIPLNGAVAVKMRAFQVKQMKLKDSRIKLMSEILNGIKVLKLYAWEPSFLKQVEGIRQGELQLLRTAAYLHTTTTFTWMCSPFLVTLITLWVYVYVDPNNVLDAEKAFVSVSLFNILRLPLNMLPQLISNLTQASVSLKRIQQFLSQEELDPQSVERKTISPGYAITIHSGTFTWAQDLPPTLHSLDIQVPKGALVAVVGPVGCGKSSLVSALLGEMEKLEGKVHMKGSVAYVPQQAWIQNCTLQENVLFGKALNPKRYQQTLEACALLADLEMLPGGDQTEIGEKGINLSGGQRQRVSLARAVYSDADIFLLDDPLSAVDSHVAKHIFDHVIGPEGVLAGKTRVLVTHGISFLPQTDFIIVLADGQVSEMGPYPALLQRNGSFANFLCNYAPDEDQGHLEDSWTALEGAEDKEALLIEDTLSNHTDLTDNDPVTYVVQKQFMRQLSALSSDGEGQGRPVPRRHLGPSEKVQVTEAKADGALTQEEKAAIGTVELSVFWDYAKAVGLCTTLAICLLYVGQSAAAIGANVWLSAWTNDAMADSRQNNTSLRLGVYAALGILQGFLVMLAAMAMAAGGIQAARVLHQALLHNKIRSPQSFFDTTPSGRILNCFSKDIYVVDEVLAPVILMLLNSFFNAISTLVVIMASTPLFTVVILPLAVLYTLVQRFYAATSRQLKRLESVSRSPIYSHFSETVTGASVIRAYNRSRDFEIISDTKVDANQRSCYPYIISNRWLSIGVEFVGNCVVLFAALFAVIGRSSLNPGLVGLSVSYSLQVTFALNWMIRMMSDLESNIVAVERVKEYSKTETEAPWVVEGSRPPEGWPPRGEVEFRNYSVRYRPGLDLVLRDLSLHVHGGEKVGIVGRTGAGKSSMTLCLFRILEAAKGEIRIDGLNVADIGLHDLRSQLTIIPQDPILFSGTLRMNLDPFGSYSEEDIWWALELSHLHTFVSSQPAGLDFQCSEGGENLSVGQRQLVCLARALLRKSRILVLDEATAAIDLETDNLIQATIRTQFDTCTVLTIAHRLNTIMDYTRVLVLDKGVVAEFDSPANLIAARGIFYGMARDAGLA
- Protocol Description: Inhibition of human MRP3 overexpressed in Sf9 insect cell membrane vesicles assessed as uptake of [3H]-estradiol-17beta-D-glucuronide in presence of ATP and GSH measured after 10 mins by membrane vesicle transport assay
- Format: ADME, cell-based
pIC50: −log10 of the molar value.
Parameter: pIC50. Scope: all listed entries.

Chemical String	pIC50
CNCCCN1c2ccccc2CCc2ccccc21	< 3.88
CCNC(=O)CCC/C=C\C[C@@H]1[C@@H](/C=C/[C@@H](O)CCc2ccccc2)[C@H](O)C[C@@H]1O	< 3.88
C[C@@H]1C/C=C/C=C/C=C/C=C/[C@H](O[C@@H]2O[C@H](C)[C@@H](O)[C@H](N)[C@@H]2O)C[C@@H]2O[C@](O)(C[C@@H](O)C[C@H]3O[C@@H]3/C=C/C(=O)O1)C[C@H](O)[C@H]2C(=O)O	< 3.88

From: ChEMBL document CHEMBL4028801
